Source: paper PMC9226124

# key: entry, value: FP signal
TESTED_ON: FITC-labeled CFTRpS753pS768 peptide (no 14-3-3) (Homo sapiens)
Construct: made in house; host or cells: synthetic peptide
Sequence (P13569 747-774 limits assumed): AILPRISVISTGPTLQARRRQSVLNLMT
ASSAY_METHOD_TEXT: Dose-response FP control assay in the absence of 14-3-3
Format: binding
SETUP_CONDITIONS: No 14-3-3; compound 3.125e-5 M
Enter a number only.

{"COMPOUND": "CN1CC(=O)NC(CCCNC(=N)N)C(=O)NC(CCC(N)=O)C(=O)NC(CCCNC(=N)N)C(=O)NCc2ccccc2-c2cccc(c2)C1 (stereo not drawn) [CY007491]", "MEASUREMENT_NAME": "FP signal", "OBSERVED_VALUE": 18}
{"COMPOUND": "NCCCC1NCc2ccccc2Sc2ccccc2CNC(=O)C(Cc2c[nH]c3ccccc23)NC(=O)C(Cc2ccccc2)NC1=O (stereo not drawn) [CY007345]", "MEASUREMENT_NAME": "FP signal", "OBSERVED_VALUE": 90}

--- query ---
With FITC-labeled CFTRpS753pS768 peptide (no 14-3-3) (Homo sapiens) as the test system, N=C(N)NCCCC1NC(=O)C(CCC(N)=O)NC(=O)C(CCCNC(=N)N)NC(=O)C2CCCN2Cc2cccc(c2)-c2ccccc2CNC1=O (stereo not drawn) [CY007458] showed FP signal of 33
